Below, each entry is listed alongside its reported pIC50.
target: HLA-B∗39:01 (purified MHC molecules) (human); assay: radioligand binding
Quick note: pIC50 means taking -log10 of the concentration in moles per liter.

{"biopolymer.sequence": "YHFLQIPT (human G6Pase 2, position 307) (peptide)", "pIC50": 6.18}
{"biopolymer.sequence": "NRVMLPKA (NLRP2, position 320, 8mer) (peptide)", "pIC50": 7.07}

// below: pIC50 requested for another sequence
Asked: Identify the reported pIC50 for the following entry. MRLLPLLA (human insulin, position 5, 8mer) (peptide)
Given back: 7.21

----------
target: HLA-B∗39:06 (Homo sapiens, UniProt P01889, A182T/A93T/A95T/C349S/D138N/D201E/E176V/E187T/E204Q/K202T/L119W/Q94N/R155S/R180L/S121T/Y140F/Y91C); assay: biochemical; type: binding
No end group written: not given here.
test.readout: pIC50
Quick note: pIC50 means taking -log10 of the concentration in moles per liter.

Some entries whose results are on file:
{"biopolymer.sequence": "MRLLPLLAL [MRLLPLLAL]", "test.readout": "pIC50", "reading": 6.17}
{"biopolymer.sequence": "NRVMLPKAA", "test.readout": "pIC50", "reading": 7.85}
{"biopolymer.sequence": "SASIPLTVVA", "test.readout": "pIC50", "reading": 6.51}

Asked: Identify the reported pIC50 for the following entry. SHLVEALYL
Given back: 4.45

Asked: Identify the reported pIC50 for the following entry. WMRLLPLLA
Given back: 6.81

Asked: Identify the reported pIC50 for the following entry. YHFLQIPT
Given back: 6.82

Asked: Identify the reported pIC50 for the following entry. FRLLCALTSL
Given back: 8.13

Asked: Identify the reported pIC50 for the following entry. FLFLFAVG
Given back: 6.39

Asked: Identify the reported pIC50 for the following entry. NRVMLPKA
Given back: 7.39

Asked: Identify the reported pIC50 for the following entry. TNLFLFLFAV
Given back: 6.45

Asked: Identify the reported pIC50 for the following entry. MRLLPLLA
Given back: 7.39

Asked: Identify the reported pIC50 for the following entry. THFPHQVIL
Given back: 5.58
